# assay-notes: Stability in mouse serum assessed as parent compound remaining incubated upto 3 hrs by RP HPLC analysis
# Assay type: ADME, cell-free
# condition-set: read-out: Stability
Starred links: 1 amine or outer side, 2 acyl side, 3 side chain; linkers in the order of their positions; H or OH if unused. Positions of bridges follow the written chain, without caps; N, C: chain ends. Non-standard residues stand in square brackets, D forms with d. Residues, ends and D or L forms follow the SMILES beside them. Groups on a side chain read outwards from the residue. *: point of attachment. dPhe(4-NH2) = Nc1ccc(C[C@@H](N)C(=O)O)cc1; Phe(4-NH2) = Nc1ccc(C[C@H](N)C(=O)O)cc1; NH(2-Me-phenyl) = Cc1ccccc1N*; CO = O=C([*:1])[*:2]
quantity-measured: remaining at 3 h

molecule	remaining at 3 h
Cc1ccccc1NC(=O)Nc1ccc(C[C@H]2NC(=O)C[C@@H](C(=O)O)NC(=O)[C@H](C(C)C)NC(=O)[C@H](CC(=O)O)NC(=O)[C@H](CC(C)C)NC2=O)cc1 ([dPhe(4-NH2)]([CO-NH(2-Me-phenyl)])LDVD-OH; lactam N-5)	> 85%

Here's the next entry for you.
Noted for Cc1ccccc1NC(=O)Nc1ccc(C[C@@H]2NC(=O)C[C@@H](C(=O)O)NC(=O)[C@H](C(C)C)NC(=O)[C@H](CC(=O)O)NC(=O)[C@H](CC(C)C)NC2=O)cc1 ([Phe(4-NH2)]([CO-NH(2-Me-phenyl)])LDVD-OH; lactam N-5) : its remaining at 3 h reads > 85%

FYI, the data here is from ChEMBL document CHEMBL5380839.
